target_of_assay: BRD2-BD2 (Homo sapiens (Human))
Sequence (P25440 344-453): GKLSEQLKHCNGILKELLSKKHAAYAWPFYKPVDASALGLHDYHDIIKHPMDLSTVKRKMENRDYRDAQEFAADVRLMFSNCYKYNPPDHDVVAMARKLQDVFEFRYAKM
protocol_notes: surface plasmon resonance analysis of binding
test_settings: SPR, BRD2(2)
property: Kd (nM)
Your answer should be a plain number; it is taken to be in nM.

Find the recorded Kd belonging to COC(=O)c1ccc(N[C@@H]2C[C@H](C)N(C(C)=O)c3ccc(-c4cccc(NC(C)=O)c4)cc32)cc1 [compound 4] and report it.
13

###

Parameter EC50: see the listing below.
target_of_assay: BRD3-BD1 (Homo sapiens (Human), UniProt Q15059)
Sequence (Q15059 34-140): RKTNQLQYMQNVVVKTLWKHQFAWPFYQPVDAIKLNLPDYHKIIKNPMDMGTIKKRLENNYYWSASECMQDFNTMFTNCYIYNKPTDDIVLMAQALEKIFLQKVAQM
protocol_notes: competitive TR-FRET assay, BET-BD with acetylated peptide ligand
Assay type: binding
test_settings: BRD3-BD1; Table 11 additional modifications; read-out: 3.1 EC50
Your answer should be a plain number; it is taken to be in nM.

Find the recorded EC50 belonging to CC(=O)N1c2ccc(-c3cccc(NCc4ccccc4)c3)cc2[C@H](NC(=O)OC(C)C)C[C@@H]1C and report it.
230

Find the recorded EC50 belonging to CCC(=O)N[C@@H]1C[C@H](C)N(C(C)=O)c2ccc(-c3cccc(NC(C)=O)c3)cc21 and report it.
36000

Find the recorded EC50 belonging to CC(=O)Nc1cccc(-c2ccc3c(c2)[C@H](Nc2ccc(CN)cc2)C[C@H](C)N3C(C)=O)c1 and report it.
78

Find the recorded EC50 belonging to CCCC(=O)Nc1cccc(-c2ccc3c(c2)[C@H](NC(=O)OC(C)C)C[C@H](C)N3C(C)=O)c1 and report it.
340

Find the recorded EC50 belonging to CC(=O)Nc1cccc(-c2ccc3c(c2)[C@H](Nc2ccc(C(=O)OC(C)(C)C)cc2)C[C@H](C)N3C(C)=O)c1 and report it.
8500

---
Find the recorded EC50 belonging to CC(=O)N1c2ccc(-c3cccc(N(CC4CC4)CC4CC4)c3)cc2[C@H](Nc2ccccc2OC(F)(F)F)C[C@@H]1C and report it.
78000

Find the recorded EC50 belonging to CC(=O)N1c2ccc(-c3cccc(NC(=O)c4ccccc4)c3)cc2[C@H](NC(=O)OC(C)C)C[C@@H]1C and report it.
170

###

target_of_assay: BRDT(2) (Homo sapiens (Human))
protocol_notes: BROMOscan KD determination
Assay type: binding
test_settings: BROMOscan KD ratio
Parameter T(1)/T(2): see the listing below.

Find the recorded T(1)/T(2) belonging to COC(=O)c1ccc(N[C@@H]2C[C@H](C)N(C(C)=O)c3ccc(-c4cccc(NCCC(F)(F)F)c4)cc32)cc1 and report it.
2.6

Find the recorded T(1)/T(2) belonging to CC(=O)Nc1cccc(-c2ccc3c(c2)[C@H](Nc2ccccc2OC(F)(F)F)C[C@H](C)N3C(C)=O)c1 and report it.
6.5

Find the recorded T(1)/T(2) belonging to CC(=O)Nc1cccc(-c2ccc3c(c2)[C@H](Nc2ccccc2C(F)(F)F)C[C@H](C)N3C(C)=O)c1 and report it.
9.4

Find the recorded T(1)/T(2) belonging to COC(=O)c1ccc(N[C@@H]2C[C@H](C)N(C(C)=O)c3ccc(-c4cccc(NC(C)=O)c4)cc32)cc1 and report it.
1.0

Find the recorded T(1)/T(2) belonging to COC(=O)c1ccc(N[C@@H]2C[C@H](C)N(C(C)=O)c3ccc(-c4ccnn4C)cc32)cc1 and report it.
6.1

Find the recorded T(1)/T(2) belonging to CC(=O)N1c2ccc(-c3cccc(-n4cccn4)c3)cc2[C@H](Nc2ccc(Cl)cc2)C[C@@H]1C and report it.
3.3

Find the recorded T(1)/T(2) belonging to CC(=O)Nc1cccc(-c2ccc3c(c2)[C@H](Nc2ccc4ncccc4c2)C[C@H](C)N3C(C)=O)c1 and report it.
2.9

Find the recorded T(1)/T(2) belonging to CCCOc1cccc(-c2ccc3c(c2)[C@H](Nc2ccc(C(=O)OC)cc2)C[C@H](C)N3C(C)=O)c1 and report it.
4.1
